# target under test: Integrin alpha-V/beta-5 (Homo sapiens, UniProt P06756+P18084)
# Sequence (P06756 31-889 limits assumed): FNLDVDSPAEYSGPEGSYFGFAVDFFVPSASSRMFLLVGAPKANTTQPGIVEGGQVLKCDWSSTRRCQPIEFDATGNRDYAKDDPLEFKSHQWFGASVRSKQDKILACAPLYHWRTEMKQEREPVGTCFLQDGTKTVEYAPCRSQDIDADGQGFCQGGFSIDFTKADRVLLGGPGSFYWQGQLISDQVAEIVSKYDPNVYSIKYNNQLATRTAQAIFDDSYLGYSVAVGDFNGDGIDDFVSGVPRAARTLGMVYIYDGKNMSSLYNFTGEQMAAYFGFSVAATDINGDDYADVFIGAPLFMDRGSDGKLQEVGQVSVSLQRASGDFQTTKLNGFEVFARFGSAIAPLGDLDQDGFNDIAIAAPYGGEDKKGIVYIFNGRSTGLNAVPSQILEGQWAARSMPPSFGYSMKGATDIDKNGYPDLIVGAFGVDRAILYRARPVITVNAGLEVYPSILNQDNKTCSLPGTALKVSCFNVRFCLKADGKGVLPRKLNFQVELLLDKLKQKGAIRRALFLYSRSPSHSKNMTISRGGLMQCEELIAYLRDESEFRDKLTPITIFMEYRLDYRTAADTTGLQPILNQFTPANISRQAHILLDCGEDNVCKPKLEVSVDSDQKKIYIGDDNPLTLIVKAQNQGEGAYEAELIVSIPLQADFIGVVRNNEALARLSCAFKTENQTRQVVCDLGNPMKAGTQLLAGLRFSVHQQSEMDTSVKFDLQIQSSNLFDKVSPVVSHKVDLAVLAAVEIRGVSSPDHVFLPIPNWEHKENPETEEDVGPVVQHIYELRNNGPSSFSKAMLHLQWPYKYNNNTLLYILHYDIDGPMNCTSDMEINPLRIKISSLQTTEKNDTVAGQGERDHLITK
# Sequence (P06756 891-1048 limits assumed): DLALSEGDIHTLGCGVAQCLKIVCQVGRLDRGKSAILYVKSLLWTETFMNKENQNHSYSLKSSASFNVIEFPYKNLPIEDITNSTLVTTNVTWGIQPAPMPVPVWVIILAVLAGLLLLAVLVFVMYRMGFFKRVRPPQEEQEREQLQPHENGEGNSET
# Sequence (P18084 24-799 limits assumed): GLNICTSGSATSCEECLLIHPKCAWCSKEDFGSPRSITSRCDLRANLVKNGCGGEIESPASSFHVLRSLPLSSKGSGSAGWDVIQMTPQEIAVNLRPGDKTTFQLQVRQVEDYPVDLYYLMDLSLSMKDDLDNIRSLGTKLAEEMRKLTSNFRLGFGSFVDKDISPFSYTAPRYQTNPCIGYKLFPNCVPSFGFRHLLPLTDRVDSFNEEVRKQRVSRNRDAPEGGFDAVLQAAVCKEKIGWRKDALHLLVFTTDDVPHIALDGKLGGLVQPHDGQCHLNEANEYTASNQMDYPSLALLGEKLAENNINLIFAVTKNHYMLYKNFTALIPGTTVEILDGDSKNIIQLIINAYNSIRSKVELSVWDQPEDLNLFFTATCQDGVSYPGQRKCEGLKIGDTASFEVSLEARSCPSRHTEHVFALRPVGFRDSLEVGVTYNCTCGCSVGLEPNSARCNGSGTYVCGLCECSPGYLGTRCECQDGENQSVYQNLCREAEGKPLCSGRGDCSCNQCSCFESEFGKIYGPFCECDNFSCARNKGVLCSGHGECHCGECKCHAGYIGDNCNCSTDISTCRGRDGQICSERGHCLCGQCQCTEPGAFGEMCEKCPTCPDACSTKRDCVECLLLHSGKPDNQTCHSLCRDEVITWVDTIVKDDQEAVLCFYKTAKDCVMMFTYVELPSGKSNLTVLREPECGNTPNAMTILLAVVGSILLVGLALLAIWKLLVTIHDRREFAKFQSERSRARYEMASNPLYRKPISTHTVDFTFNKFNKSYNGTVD
# experiment notes: Binding affinity towards alpha V-beta5 receptor expressed in HEK293 cells
Consider the following compounds and their measured IC50 readings.
Dear colleague, please return just the value in nM, with no unit written.

> print(dat)
                                   compound  readout  result
1  COc1cc(NC(=O)c2cccc(N=C(N)N)c2)ccc1OCC(=O)O     IC50     102
2  Cc1cc(NC(=O)c2cccc(NC(=N)N)c2)ccc1/C=C/C(=O)O     IC50      49
3  CC(C)(C)NC(=O)NC(Cc1ccc(NC(=O)c2cccc(N=C(N)N)c2)cc1)C(=O)O (stereo not given)     IC50       3
4  COc1cc(NC(=O)c2cccc(NC3=NCCCN3)c2)ccc1CC(NC(=O)OC(C)C)C(=O)O (stereo not given)     IC50    0.41
5  N=C(N)Nc1cccc(C(=O)Nc2ccc(/C=C/C(=O)O)cc2Cl)c1     IC50      60

Consider the compound `N=C(N)Nc1cccc(C(=O)Nc2ccc(/C=C/C(=O)O)cc2F)c1` tested on Integrin alpha-V/beta-5 (Homo sapiens, UniProt P06756+P18084); state its IC50.
45

Write down the reported IC50 (system: Integrin alpha-V/beta-5 (Homo sapiens, UniProt P06756+P18084)) of `COc1cc(NC(=O)c2cccc(NC3=NCCCN3)c2)ccc1CCC(=O)O`
16.6
